experimental.endpoint: Ki (µM)
Just the number please, in µM, no unit attached.

Asked: Lab note: need Ki for C[C@]12CC[C@@H]3c4ccc(OS(N)(=O)=O)cc4CC[C@H]3[C@@H]1CC[C@@H]2OS(N)(=O)=O on Carbonic anhydrase 1 (Homo sapiens), anyone have it?
Given back: 6
